biological target: T1, human SLITRK6 extracellular domain linked to his tag (human, UniProt Q9H5Y7 27-608); assay: BLI; antigen ECD-his on anti-his tips, antibody as analyte; 1:1 fit;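 note: antibody at several concentrations, 180 s association then 300 s dissociation in Tris buffer at pH 6 or 7.5, rate constants from global fitting, KD computed as koff/kon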
T1 construct: extracellular domain; also called huSLITRK6; Hu SLITRK6; not shown: his tag
Listed here are binders together with their documented koff.
Just the number plus its unit, please.

Known koff results, listed for orientation:
What measured koff goes with phA108 (antibody, V domains shown, From phage display, then full-length construction; Only the variable regions are tied to the name) VH: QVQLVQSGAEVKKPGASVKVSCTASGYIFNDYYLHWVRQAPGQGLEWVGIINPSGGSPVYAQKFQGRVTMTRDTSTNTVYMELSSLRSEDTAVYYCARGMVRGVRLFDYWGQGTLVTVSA VL: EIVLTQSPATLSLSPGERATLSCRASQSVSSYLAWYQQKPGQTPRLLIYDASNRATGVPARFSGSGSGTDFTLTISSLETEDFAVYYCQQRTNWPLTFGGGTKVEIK ?
0.000969 s⁻¹

I would be grateful if you could share the reported koff for hu1H2-03 (antibody, V domains shown, see m20) VH: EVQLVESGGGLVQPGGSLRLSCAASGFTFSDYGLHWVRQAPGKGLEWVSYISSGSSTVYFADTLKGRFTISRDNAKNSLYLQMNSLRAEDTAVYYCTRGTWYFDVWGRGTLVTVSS VL: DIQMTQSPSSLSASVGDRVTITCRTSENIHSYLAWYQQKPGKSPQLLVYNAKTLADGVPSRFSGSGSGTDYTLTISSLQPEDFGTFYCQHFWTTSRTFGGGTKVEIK .
0.000441 s⁻¹

Given the binder Sirtratumab (antibody, V domains shown, Prior-art benchmark antibody; also called Sirtratuzumab) VH: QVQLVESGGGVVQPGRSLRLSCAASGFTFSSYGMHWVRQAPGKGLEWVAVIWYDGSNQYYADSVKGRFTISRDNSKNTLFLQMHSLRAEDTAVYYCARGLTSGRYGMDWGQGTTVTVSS VL: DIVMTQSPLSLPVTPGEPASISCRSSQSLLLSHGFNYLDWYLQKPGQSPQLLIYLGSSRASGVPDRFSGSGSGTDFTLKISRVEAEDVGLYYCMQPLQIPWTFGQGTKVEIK , what is its reported koff?
0.00416 s⁻¹

Given hu14G1-03 (antibody, V domains shown) VH: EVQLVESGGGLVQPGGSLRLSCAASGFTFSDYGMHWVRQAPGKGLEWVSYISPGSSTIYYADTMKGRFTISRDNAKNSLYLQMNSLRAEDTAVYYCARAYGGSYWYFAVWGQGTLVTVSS VL: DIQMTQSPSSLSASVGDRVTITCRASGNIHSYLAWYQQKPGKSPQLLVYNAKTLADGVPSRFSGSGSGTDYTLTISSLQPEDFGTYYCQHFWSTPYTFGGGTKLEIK , state its recorded koff.
8.26e-05 s⁻¹

***
Fill in: koff of hu1H2-13 (antibody, V domains shown) VH: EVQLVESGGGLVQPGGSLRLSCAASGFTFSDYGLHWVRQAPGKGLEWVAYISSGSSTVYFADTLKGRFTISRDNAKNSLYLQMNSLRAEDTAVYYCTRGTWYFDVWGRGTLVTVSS VL: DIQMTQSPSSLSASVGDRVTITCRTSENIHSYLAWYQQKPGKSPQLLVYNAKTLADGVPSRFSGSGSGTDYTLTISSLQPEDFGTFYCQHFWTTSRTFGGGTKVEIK is ___
0.00044 s⁻¹
